Measured % Injury Corn of individual entries
# Tested on: corn
# test-name: Example 9, Procedure II: Herbicide No. 1 + pretilachlor (No. 13) with antidotes
# Assay type: in vivo
# condition-context: Herbicide No.1 0.56 kg/ha + Herbicide No.13 2.24 kg/ha; antidote rate 8.96 kg/ha
Report only the number, with the unit % understood.

A selection of reference data follows.
1. CC1(C)OC(c2ccco2)CN1C(=O)C(Cl)Cl (stereo not shown) | 5
2. O=C(C(Cl)Cl)N1CCOC12CCCCC2 | 25
3. C=CCN(CC=C)C(=O)C(Cl)Cl | 10

In: Please report the recorded % Injury Corn for CC1(C(Cl)Cl)OCCO1 .
Out: 20

The origin of these recorded values is patent EP0603240B1.
